B1: KRT13 (parent)
chain: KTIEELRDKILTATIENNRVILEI

# Variants of: B1
# ASSAY METHOD TEXT: protein stability index of a GFP-peptide fusion (GPS, HEK-293T) (PSI 1-6); higher = more stable;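 further: lentivirally expressed fusions sorted by FACS into six bins by GFP to DsRed ratio, PSI derived from sequencing read proportions per bin multiplied by bin number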
# CONDITION NOTES: c terminus: a fixed tail appended
Response key: Yes means protein stability index >= 3; No means protein stability index < 3.

Below are worked cases with known answers.
Request: Could you tell me if the measured protein stability index of N17C reaches 3 or more?
Result: Yes

Request: Could you tell me if the measured protein stability index of T2E reaches 3 or more?
Result: No

Request: Could you tell me if the measured protein stability index of I10P reaches 3 or more?
Result: No

Request: Could you tell me if the measured protein stability index of K9N reaches 3 or more?
Result: No

Next:
Request: Could you tell me if the measured protein stability index of I21T reaches 3 or more?
Result: No

Request: Could you tell me if the measured protein stability index of K9F reaches 3 or more?
Result: No

Request: Could you tell me if the measured protein stability index of E23D reaches 3 or more?
Result: No

Request: Could you tell me if the measured protein stability index of T12V reaches 3 or more?
Result: Yes

Request: Could you tell me if the measured protein stability index of V20G reaches 3 or more?
Result: No
